Measured on: T1, human ferroportin (SLC40A1) fused with GFP, stably expressed in HEK293 cells (human, UniProt Q9NP59 1-571)
T1 sequence (looked up): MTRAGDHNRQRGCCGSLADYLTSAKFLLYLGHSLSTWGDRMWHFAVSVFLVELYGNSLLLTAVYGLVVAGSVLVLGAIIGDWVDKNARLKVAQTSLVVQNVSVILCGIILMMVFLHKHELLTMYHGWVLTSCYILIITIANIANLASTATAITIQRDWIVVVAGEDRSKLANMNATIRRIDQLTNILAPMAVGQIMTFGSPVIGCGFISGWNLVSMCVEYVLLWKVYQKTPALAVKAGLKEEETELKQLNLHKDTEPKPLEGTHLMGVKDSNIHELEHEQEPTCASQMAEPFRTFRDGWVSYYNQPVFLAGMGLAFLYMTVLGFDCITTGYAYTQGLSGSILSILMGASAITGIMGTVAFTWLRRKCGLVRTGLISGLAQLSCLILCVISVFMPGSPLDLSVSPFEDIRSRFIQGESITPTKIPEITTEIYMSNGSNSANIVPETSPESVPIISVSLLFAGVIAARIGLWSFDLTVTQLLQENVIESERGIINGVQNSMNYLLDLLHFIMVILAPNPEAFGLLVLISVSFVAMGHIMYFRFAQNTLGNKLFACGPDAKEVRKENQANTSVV
Method: cell-based or functional assay
Positions of bridges follow the written chain, without caps; N, C: chain ends. Non-standard residues stand in square brackets, D forms with d. Groups on a side chain read outwards from the residue. Primed or numbered codes have the meaning given here. *: point of attachment. PEG4′ = bifunctional PEG linker with 4 polyethylene glycol units; PEG12 = NCCOCCOCCOCCOCCOCCOCCOCCOCCOCCOCCOCCOCCC(=O)O; Dip = N[C@H](C(=O)O)C(c1ccccc1)c1ccccc1; AEF = NCCOc1ccc(C[C@H](N)C(=O)O)cc1; Palmitoyl = CCCCCCCCCCCCCCCC(=O)*; Isovaleryl = CC(C)CC(=O)*; PEG8′ = not defined here; Npc = nipecotic acid
Categorize each record by its FPN IC50 using low (below 9 nM), intermediate (9 nM to below 20 nM), high (20 nM or more)

Example entries begin here.
> print(dat)
                                     binder  answer.label
1  Isovaleryl-DTH[Dip][Npc]CI[dK][AEF]K([PEG12-Palmitoyl])KC-NH2 (disulfide 6-12 (inferred)) [Compd ID 111]          high
2  DTHXPCIKFKC (Isovaleric acid-DTH-[Dpa]-PCI-[(D)Lys]-F-[Lys(Peg11-Palm)]-C-NH2) [Compd ID 135]          high
3  Isovaleryl-DTHFPCI[dK]FK([PEG8′-Palmitoyl])KC-NH2 (disulfide 6-12 (inferred)) [Compd ID 95]          high

### Prompt State the class of the binder shown: Isovaleryl-DTH[Dip][Npc]CI[dK]FK([PEG12-Palmitoyl])[dK]C-NH2 (disulfide 6-12 (inferred)) [Compd ID 117]
### Response low

### Prompt Do the same for Isovaleryl-DTHFPCI[dK]FK([PEG4′-Palmitoyl])KC-NH2 (disulfide 6-12 (inferred)) [Compd ID 91] please
### Response intermediate

### Prompt Do the same for Isovaleryl-DTHFPCI[dK]FK([PEG12-Palmitoyl])PRCK-NH2 (disulfide 6-13 (inferred)) [Compd ID 77] please
### Response intermediate
